Target: NaChBac (Halalkalibacterium halodurans (Bacillus halodurans), UniProt Q9KCR8, S273L)
Sequence (Q9KCR8 1-274 S273L): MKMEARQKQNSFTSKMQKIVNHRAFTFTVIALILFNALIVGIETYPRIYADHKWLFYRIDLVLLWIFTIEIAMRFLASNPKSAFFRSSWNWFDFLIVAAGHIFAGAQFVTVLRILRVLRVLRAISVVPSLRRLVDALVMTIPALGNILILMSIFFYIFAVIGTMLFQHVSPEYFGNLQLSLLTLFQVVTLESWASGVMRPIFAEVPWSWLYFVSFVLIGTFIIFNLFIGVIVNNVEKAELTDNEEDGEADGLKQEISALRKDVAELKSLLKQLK
Test: cell-based
Format: cell-based
Conditions: read-out: concentration of agent needed to block INaChBac by 50% (IC50)
Measured parameter: IC50 (µM)
The answer is to be given in µM; state only the numeric part.

Request: Look up IC50 of `[Ni+2]` and report it.
Response: 720

* * *

Biological target: NaChBac (Halalkalibacterium halodurans (Bacillus halodurans), UniProt Q9KCR8, S273L)
Assay: cell-based
Format: cell-based
Measured parameter: pIC50
Lab note — pIC50 values are minus log10 of concentrations in M.

Request: State, in one line, measured pIC50 of COC(=O)C1=C(C)NC(C)=C(C(=O)OC)C1c1ccccc1[N+](=O)[O-] [nifedipine, Nifedipine]
Response: 5.66

Request: Given the molecule COCCOC(=O)C1=C(C)NC(C)=C(C(=O)OC(C)C)C1c1cccc([N+](=O)[O-])c1 (stereo not drawn) [nimodipine] , write its reported pIC50.
Response: 6.00

Request: State, in one line, measured pIC50 of COCC(=O)O[C@]1(CCN(C)CCCc2nc3ccccc3[nH]2)CCc2cc(F)ccc2[C@@H]1C(C)C [mibefradil]
Response: 4.66
